Target: human PPARα (Homo sapiens)
Construct: expressed in transfected cells; host or cells: Cos-7
Sequence (Q07869 239-466 limits assumed): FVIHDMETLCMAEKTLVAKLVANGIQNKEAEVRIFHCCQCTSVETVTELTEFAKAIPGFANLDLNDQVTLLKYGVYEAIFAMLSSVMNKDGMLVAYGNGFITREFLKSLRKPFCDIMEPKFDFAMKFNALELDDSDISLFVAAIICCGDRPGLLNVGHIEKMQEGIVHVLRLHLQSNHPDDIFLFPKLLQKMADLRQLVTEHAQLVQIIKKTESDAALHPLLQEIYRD
Experiment: Gene reporter (transactivation) assay, Cos-7 cells transfected with pGal4-hPPARα;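 further: luciferase signal from a Gal4-driven reporter normalised to cotransfected β-galactosidase activity, cells exposed to rising compound concentrations with DMSO vehicle as control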
Type: cell-based
Conditions: COS-7, 24 h, Emax relative to maximum activation with WY14643 (10 µM) = 100%, read-out: hPPAR gene reporter αGal4 (%)
Readings of Emax for the listed compounds
Report only the number, with the unit % understood.

Worked set:
>>> reading("CCOC(Cc1ccc(OCCn2c(=O)sc3cc(/C(=N/OC)c4ccccc4)ccc32)cc1)C(=O)O (stereo not shown) [Compound 40a]")
159
>>> reading("CCO[C@@H](Cc1ccc(OCCn2c(=O)sc3cc(C(=O)c4ccccc4)ccc32)cc1)C(=O)O [Compound 41a]")
166
>>> reading("CON=C(c1ccccc1)c1ccc2c(c1)sc(=O)n2CCOc1ccc(CC(OCC(F)(F)F)C(=O)O)cc1 (racemic) [Compound 40b]")
56

So what's the measured Emax for this one? CCO[C@@H](Cc1ccc(OCCn2c(=O)sc3cc(/C(=N/O)c4ccccc4)ccc32)cc1)C(=O)O [Compound 43a]
153

Measured values drawn from paper PMC7006651 for this set.
